B1: NCF4 (parent)
chain: FVKILKDFPEEDDPTNWLRCYYYE

variants of: B1; assay: protein stability index of a GFP-peptide fusion (GPS, HEK-293T) (PSI 1-6); higher = more stable; conditions: c terminus: a fixed tail appended;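 note: lentivirally expressed fusions sorted by FACS into six bins by GFP to DsRed ratio, PSI derived from sequencing read proportions per bin multiplied by bin number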
Kindly state protein stability index for each of the entries shown.
Numbers only.

Mutation Label	Property Name	Numeric Readout
K6R	protein stability index	1.17

Provide protein stability index values for the following items, in order.
1. N16L
2. K6L

// result
1.64
1.96

# batch: return protein stability index for each of the 3 variants below
1. I4M
2. D13E
3. C20V

// result
1. 2.39
2. 2.69
3. 1.72

Lab note: each variant below needs its protein stability index filled in.
1. Y23A
2. W17F
3. T15Q
4. T15G
5. K6N
6. N16V
7. Y23D
8. V2W

// result
1.75
1.59
2.02
1.66
3.4
1.82
1.57
3.35

Hey, quick one: what's protein stability index for each of these?
1. E24L
2. N16I
3. R19L
4. E11T
5. L5D

// result
[2.95, 1.75, 1.78, 2.96, 2.1]

Give protein stability index for each listed item.
1. R19I
2. Y21R

// result
1.84
1.9
